# Lookup of reported MFI keyed by entry
- assay-target: T1, mouse TMEM106B (mouse, UniProt Q80X71 2-275)
- T1 construct: on transiently transfected HEK293 cells, or natively expressed on mouse Neuro2a cells; also called moTMEM106B; murine TMEM106B
- assay: FACS Neuro2a;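 also: flow cytometry of cells stained with antibody or hybridoma supernatant (purified antibody at 10 µg/ml) for 1 h on ice, propidium iodide–positive dead cells gated out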
Number only, no unit.

Solved entries:
anti-TMEM106B antibody TM-8 (antibody, V domains shown, mouse IgG from hybridoma) VH: QIQLVQSGPELKKPGETVKISCKASGYTFTDYPMHWVKQAPGKGFKWMGVIYTDTGEPKYAEVFKGRFAFSLETSASTAYLQINNLKNEDTATYFCVRRLAYWGQGTLVTVSA VL: DIKMTQSPSSMYASLGERVTITCKASQDINSYLSWFQQKPGKSPKTLIFRANRLVDGVPSRFSGSGSGQDYSLTISSLEYEDMGIYYCLQYDEFPLTFGAGTKLEMK : 370
anti-TMEM106B antibody TM-29 (antibody, V domains shown) VH: QVQLRQSGAELVRPGASVKLSCKASGYTFTDYYINWVKQRPGQGLEWIARIYPGSGYTYYNEKFKGKATLTAEGSSNTAYMQLSSLTSEDSAVYFCANHYTNPFAYWGQGTLVTVSA VL: DIVMTQAAFSNPVTLGTSASISCRSSKSLLHYNGITYLYWYLQKPGQSPQLLIYQMSNLASGVPDRFSSSGSGTDFTLRISRVEAEDVGVYYCAQNLELPYTFGGGTKLEIK : 1480
anti-TMEM106B antibody TM-10 (antibody, V domains shown) VH: QVQLQQSGAELVKPGASVKISCKGSGYAFSSYWMNWVKQRPGKGLEWIGQIYPGDGDTNYNGKFKGKATLTADKSSTTAYIHLSSLTSEDSAVYFCARWGHYDEAMDDWGQGTSVTVSS VL: DVVMTQTPLSLPVSLGDQASISCRSSQSLVHSNGKTYLHWYVQKPGQSPKLLIYKISNRFSGVPDRFSGSGSGTDFTLKISRVEAEDLGVYFCSQITHVPWTFGGGTKLESK : 604
anti-TMEM106B antibody TM-19 (antibody, V domains shown) VH: DVQLQQSGAELVRPGASVKLSCTASGFNIKDYYMYWVKQRPEQGLEWIGRIDPEDGDTENAPKFRGMATMTADTSSNTAYLQLNSLTSEDTAVYYCTTRIGNLYHVMDYWGHGTSVTVSS VL: DVLMTQTPLSLPVSLGDQASISCRSSQSIVHSNGNTYLEWYLQKPGQAPKLLIDKVFNRFSGVPDRFSGSGSGTDFTLKISRVEAEDLGVYYCFQGSHVPFTFGSGTKLEIK : 2140
anti-TMEM106B antibody TM-26 (antibody, V domains shown) VH: QVQLQQSGAELIRPGTSVKVSCKASGYAFTNYLIEWVKKRPGQGLEWIGVINPGSGITNYNEKFKGKATLTADKSSSTAYMQLSSLTSEDSAVYFCARSDFITTVVADYWGQGTTVTVSS VL: DIVVTQTPLSLPVSFGDQVSISCRSSQSLTNYYGNTYLSWYLHKPGQSPQLLIYGISNRFSGVPDRFSGSGSGTDFTLKISTIKPEDLGMYYCLQGTHQPRTFGGGTKLEIK : 324
anti-TMEM106B antibody TM-18 (antibody, V domains shown) VH: EVRLQQSGPELVKPGASVKISCKTSGYTFTDYYMNWVKQSHGKSLEWIVNINPNNGDAFYNQKFKGKATLTVDKSSNTAYLDLRSLTSEDSAVYYCAREGQLRLRRVYAMDYWGQGTSVTVSS VL: DIVLAQSPASLAVSLGQRATISCRASKSVSISVYTYVHWYQQKPGQPPKLLIYLASNLESGVPARFSGSGSGTDFTLNIHPVEEEDAATYYCQHSRELPYTFGGGTKLEIK : 1930
anti-TMEM106B antibody TM-17 (antibody, V domains shown) VH: QVQLQQSGAELIRPGTSVKVSCKASGYAFTDYLIEWVKQRPGQGLEWIGVINPGSGGTNYNEKFKGKAKLTADKSSSTAYMQLSSLTSEDSAVYFCVRSSYGVYVAYPMDYWGQGTSVTVSS VL: DIQMTQSPSSLSASLGERVSLTCRASQDIGSNLNWLQQEPDGTIKRLIYATSSLDSGVPKRFSGSRSGSDYSLTISSLESEDFVDYYCLQYASSPRTFGGGTKLEIK : 385
anti-TMEM106B antibody TM-28 (antibody, V domains shown) VH: EVQLQQSGPVLVKPGPSVKISCMASVFTFNDYYIHWVKQSHGKSLEWIGLVYPYNGGTNYNQNFKGKATLTVDTSSRTAYMELNSLTSEDSAVYYCARSYFSNPIGYWGQGTLVTVSE VL: DIVMTQSPSSLSVSVGEKVTVSCKSSQSLLNSGNQKNYLAWYQQKPGQPPKLLIYGASTRESGVPDRFTGSGSGTDFTLTISSVQAEDLAVYYCQNDHSYPLTFGAGTKLELK : 2740

Input: What measured MFI goes with anti-TMEM106B antibody TM-14 (antibody, V domains shown, mouse IgG from hybridoma) VH: QVQLQQSGPELVRPGTSVKVSCKASGYAFTNYLIEWVKQRPGQGLEWIGVINPGGGNTDYSEKFKDKATLTADKSSNTAYIQLSSLTSEDSAVYFCARSPYSSYVGYAVDYWGQGTSVTVSS VL: DIQMTQSPSSLSASLGERVSLTCRASQDIGSNLNWLQQEPDGTIKRLIYATSSLDSGVPKRFSGSRSGSDYSLTISSLESEDFVVYYCLQYASSPRTFGGGTRLEIK ?
Output: 300

Input: Report MFI for anti-TMEM106B antibody TM-49 (antibody, V domains shown, mouse IgG from hybridoma) VH: QVQLQQPGAELVRPGSSVKLSCKASGYTFTRFWMHWVKQRPIQGLEWIGNIDPSDSQTHYNQKFKDKATLTVDKSSSTAYMQLSSLTSEDSAVYYCARLITVDYAMDYWGQGTSVTVSS VL: QIVLTQSPAIMSASPGEKVTISCSASSSVSYMYWYQQKPGSSPKPWIHRTSNLASGVPVRFSGSGSGTSYSLTISSMEAEDAATYYCQQYHSYPPTFGAGTKLELK please.
Output: 291
